molecular target: T1, Recombinant Human DLL4 (delta-like protein 4) (human, UniProt Q9NR61 27-524); experiment: ECL (MSD) multispot binding assay, antigen spotted on plate, Fab in solution;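 also: purified Fab incubated 1 h at 20 °C, detected via TAG-labelled antibody electrochemiluminescence, antigen spot compared with the blank in the same well, ratio at least 4 counted as hit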
T1 construct: Bought recombinant human DLL4 (R&D Systems Cat#1506-D4/CF); also called rHuman DLL4
I'd appreciate it if you marked entries True when Signal/Blank is lower than 500 and False when it is not.

A selection of reference data follows.
Fab VH1-46_IGHD6-6*01_IGHJ1*01 S102A/S103P/S104F/H111F (APFF) & L6_IGKJ1*01 S30R (Fab, V domains shown, Fab made in E. coli; The constant parts (CH1 with His6 and Flag tags from plasmid A, kappa CL from plasmid C) are not added here; also called APFF & S30R) VH: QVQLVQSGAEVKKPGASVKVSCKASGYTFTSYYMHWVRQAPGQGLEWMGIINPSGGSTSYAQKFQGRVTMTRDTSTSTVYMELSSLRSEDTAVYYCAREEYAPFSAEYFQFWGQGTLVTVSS VL: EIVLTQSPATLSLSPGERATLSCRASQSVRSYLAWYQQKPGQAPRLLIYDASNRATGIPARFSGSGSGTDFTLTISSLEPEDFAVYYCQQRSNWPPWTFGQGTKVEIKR
False
Fab VH1-46_IGHD6-6*01_IGHJ1*01 S102A/S103P/S104F/H111F (APFF) & L6_IGKJ1*01 S31P (Fab, V domains shown, Fab made in E. coli; The constant parts (CH1 with His6 and Flag tags from plasmid A, kappa CL from plasmid C) are not added here; also called APFF & S31P) VH: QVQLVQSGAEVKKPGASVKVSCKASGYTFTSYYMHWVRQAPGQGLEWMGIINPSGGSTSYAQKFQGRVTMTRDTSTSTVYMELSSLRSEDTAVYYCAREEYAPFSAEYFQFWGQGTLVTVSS VL: EIVLTQSPATLSLSPGERATLSCRASQSVSPYLAWYQQKPGQAPRLLIYDASNRATGIPARFSGSGSGTDFTLTISSLEPEDFAVYYCQQRSNWPPWTFGQGTKVEIKR
True

Query :: Signal/Blank strictly < 500 for this binder? Fab VH1-46_IGHD6-6*01_IGHJ1*01 S102A/S103P/S104F/H111F (APFF) & L6_IGKJ1*01 S31K (Fab, V domains shown, Fab made in E. coli; The constant parts (CH1 with His6 and Flag tags from plasmid A, kappa CL from plasmid C) are not added here; also called APFF & S31K) VH: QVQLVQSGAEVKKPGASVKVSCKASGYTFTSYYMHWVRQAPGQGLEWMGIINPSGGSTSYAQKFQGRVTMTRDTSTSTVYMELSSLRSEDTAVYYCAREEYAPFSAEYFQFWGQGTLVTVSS VL: EIVLTQSPATLSLSPGERATLSCRASQSVSKYLAWYQQKPGQAPRLLIYDASNRATGIPARFSGSGSGTDFTLTISSLEPEDFAVYYCQQRSNWPPWTFGQGTKVEIKR
Result :: True

Values were extracted from patent US20120316071A1.
